# assay-protocol: folding stability dG unfold from chymotrypsin proteolysis; higher = more stable

{"primary-sequence": "SAGGEEVTIKLSDELRDLVPDAEIRVERLEDGTLRIEIRVRLPAPEPPEPVERREERRVEVRVEVRLESAGG [r13_129_TrROS_Hall]", "folding stability dG unfold": "2.22 kcal/mol"}
{"primary-sequence": "SAGGMNMKPIKKETFTLPDENGNEVKIEIYKLEDGSYIIKITYPSGKTETFIVPDEETAKNLKIEIKPSAGG [r13_109_TrMRF]", "folding stability dG unfold": "2.91 kcal/mol"}
{"primary-sequence": "SAGGSAGGSEKIIEELKKKFPGLKIDKIEITVKKKKITIELKPPPKVYLTKEELEKKGYKIEKSAGGSAGGS [r12_3_TrROS_Hall]", "folding stability dG unfold": "0.449 kcal/mol"}
{"primary-sequence": "SAGGSAGGSKKKKKKKKKIKVLIRNKKTGKWFEAEAEVVDGELYIKVNGKIYKIKGPVEIELVSAGGSAGGS [r12_683_TrROS_Hall]", "folding stability dG unfold": "3.69 kcal/mol"}
{"primary-sequence": "SAGGMKIYYISKGKKYYVKVILPNNEIIEIETESLEEAIKKAKEELIKKYPNIPPENFKIDYIIPLPESAGG [r13_887_TrMRF]", "folding stability dG unfold": "4.34 kcal/mol"}
{"primary-sequence": "SAGGSAGGSAGGMPAEEVQNIIEEQGFDGPNQTVTIDVPDGRRVKIEMPPNGMKLEVEDSAGGSAGGSAGGS [r10_604_TrROS]", "folding stability dG unfold": "0.0665 kcal/mol"}
{"primary-sequence": "SAGGKDGKPKPKVEPEITVQFYIPLPPDDLTPEEIAQWMSDHFGFPFTNVEIERHPEDNYYRVSFTIRSAGG [r13_457_TrROS]", "folding stability dG unfold": "2.56 kcal/mol"}
{"primary-sequence": "SAMANITANYYDPETGKVLAKDLPLPNGDEVHVTPNPVTGTVTVEWDGPEEALEVIKAALPPDWKIYPLSAG [r14_252_TrMRF]", "folding stability dG unfold": "-0.0765 kcal/mol"}
{"primary-sequence": "SAGVKIKWEPIDRDPKNGHVYYSITIKVPKDGKPLDEIPIGMYQFDNDDGKWEPMPEEDIKQQAKDLLNSAG [r5_909_TrROS]", "folding stability dG unfold": "0.0649 kcal/mol"}
{"primary-sequence": "GENVPPKTVTVSAPVDPTTGRVTVNPGNTTVSISLPDGADVTLSFSTSMSEEEQLAFVEKEAAALNAALAAS [r1_25_JUSTAS]", "folding stability dG unfold": "0.443 kcal/mol"}
{"primary-sequence": "SAGGSAGGSAGSPMSAEEVEERLREELRRELGPDYTVTVTVTEVLPEGVYVVSVTVTGPASAGGSAGGSAGG [r11_153_JUSTAS]", "folding stability dG unfold": "1.96 kcal/mol"}
{"primary-sequence": "SAGGSAGGSKAEVVEEKEIFTFPNGFVIKLTKVKNENGEEFEFIEIVPLPPELTEEELKKLKESAGGSAGGS [r12_775_TrROS_Hall]", "folding stability dG unfold": "2.14 kcal/mol"}
{"primary-sequence": "MTPDDMKDPNGMPPEDMWMVEIYVPRRDPEDGGPKWKPVGTIFIPPGMDPEELNEIIEELPGLDLIEIYPMS [r1_132_TrROS]", "folding stability dG unfold": "1.42 kcal/mol"}
{"primary-sequence": "SAGGSAGGSPELKISFPGFEGAEVELDPETNIATVRVKLPDKELELKVRIDDDGITIVEVREVSAGGSAGGS [r20_60_TrMRF]", "folding stability dG unfold": "1.86 kcal/mol"}
